# Tested on: OVCAR-8 ovarian
# ASSAY COMMENT: NCI tumour cell line growth inhibition, 48 h
ASSAY ENDPOINT: TGI

1) COC(=O)C1C(=O)C=CN([C@H](C)c2ccccc2)[C@@H]1Cc1ccc(OC)c(OCc2ccccc2)c1I (some centres undefined): > 100 µM

Look at this compound and give its reported TGI. COc1cccc(/C=C2\C(=O)N(C(=O)c3ccc(NC(C)=O)cc3)N=C2C)c1
> 100 µM

Subsequent entry: Fc1ccc(C2SCc3nc4ccccc4n32)cc1Cl (centres undefined)
48.1 µM

Subsequent entry: CCOC(=O)CN=C1NNS(=O)(=O)c2ccccc21
> 100 µM

Subsequent entry: Cc1ccc(C)c(COCCOCn2ccc(N)nc2=O)c1
> 100 µM

Subsequent entry: N#Cc1c(-c2ccccc2)cc(Nc2cccc(C(F)(F)F)c2)n2c1nc1ccccc12
10.3 µM

* * *

# Tested on: CAKI-1 renal
# ASSAY COMMENT: NCI tumour cell line growth inhibition, 48 h
ASSAY ENDPOINT: TGI

Past entries and their recorded results:
1) COC(=O)C1=C(C(=O)OC)c2cc(OC)ccc2C(C(=S)N(C)C)S1 (stereo not given): > 100 µM
2) CC(C)c1cc2c(O)c(c1)Cc1cc(C(C)C)cc(c1O)Cc1cc(C(C)C)cc(c1O)Cc1cc(C(C)C)cc(c1O)C2: > 100 µM
3) O=C(O)Cc1cccc2c1OC(c1ccccc1)C(Cl)(C(=O)c1ccccc1)C2=O (stereo not given): 31.6 µM

Look at this compound and give its reported TGI. c1cc[c]([Pb]([c]2ccccc2)[c]2ccccc2)cc1
> 100 µM

Subsequent entry: COc1cc(OC)c2c(=O)c(OC)c(-c3ccc4c(c3)OCO4)oc2c1
60.5 µM

Subsequent entry: O=C(O)[C@@H]1CSCN1C(=O)[C@@H]1CCC(=S)N1
> 100 µM

Subsequent entry: CNc1nc2n(CCO)c(-c3ccccc3)c(-c3ccccc3)nc-2c(=O)n1
> 50 µM

* * *

# Test system: NCI-H460 lung
ASSAY ENDPOINT: GI50

Look at this compound and give its reported GI50. C=C[C@H]1C[C@@H]2C[C@@H]3[C@H]4C/C=C\C(=O)NCCCC5NC(=O)C(=C(O)/C=C/[C@@H]4CC(=O)[C@H]3[C@@H]2[C@H]1C)C5=O (some centres not stated)
348 nM

Subsequent entry: COc1cc2c3c(n(C)c(=O)c2cc1OC)-c1cc2c(cc1/C3=C\CNCCCN)OCO2
750 nM

* * *

# System: NCI-H460 lung
# ASSAY COMMENT: NCI tumour cell line growth inhibition, 48 h
Each record here notes measured log10 of TGI.
The common logarithm of TGI in µM is what is listed.

1) COc1ccc(/C=C\c2cc(OC)c(OC)c(OC)c2)cc1OC(=O)NCCN(C)C: -2.31

Look at this molecule and give its reported log10 of TGI. COc1cc2c(c(OC)c1OC)C(=O)[C@@H]1c3ccc([N+](=O)[O-])cc3C(=O)N(CCCBr)[C@H]21
1.79

Subsequent entry: N#Cc1c(-c2ccccc2)cc(Nc2cccc(C(F)(F)F)c2)n2c1nc1ccccc12
1.25

* * *

# System: EKVX NSCLC
# ASSAY COMMENT: NCI tumour cell line growth inhibition, 48 h; in the data active = GI50 below about 0.43 µM; inactive = the rest
Write down the outcome that applies. Available outcomes: active, inactive

Worked examples follow.
1) Cc1ccc2c3c(c(=O)[nH]c2c1)C1(C(C#N)=C(N)O3)c2cc(Br)ccc2-c2ccc(Br)cc21: inactive
2) COc1cc2c3c(n(CCNCCCNCCn4c5c(c6cc(OC)c(OC)cc6c4=O)C(=O)c4ccccc4-5)c(=O)c2cc1OC)-c1ccccc1C3=O: inactive
3) Cc1ccc(NC(=O)c2sc3nc(C)c(C(O)c4ccccc4)cc3c2N)cc1 (stereo unspecified): inactive
4) O=C(/C=C\n1cnc(-c2cc(C(F)(F)F)cc(C(F)(F)F)c2)n1)NNc1cnccn1: active

What call does the record list for COc1ccc(-n2cc(-c3cc(OC)c(OC)c(OC)c3)[nH]c2=O)cc1Cl ?
inactive

Subsequent entry: COc1cc2c(c(OC)c1OC)C(=O)[C@@H]1c3ccc([N+](=O)[O-])cc3C(=O)N(CCCBr)[C@H]21
inactive

* * *

# Test system: A498 renal
# ASSAY COMMENT: NCI tumour cell line growth inhibition, 48 h
ASSAY ENDPOINT: TGI

Past entries and their recorded results:
1) CN(C)CCCN1c2ccccc2Sc2cnccc21: > 100 µM
2) O=c1[nH]c(=O)n(C2OC(CO)C(O)C(O)C2O)cc1F (centres undefined): > 100 µM
3) CC(=O)OC1(C)C=CC(=O)C=C1: 84 µM

So what TGI did O=c1c2cc(S(=O)(=O)O)ccc2nc(COc2ccc(Oc3ccc(Cl)cc3Cl)cc2)n1-c1ccc(Cl)cc1Oc1c(Cl)cccc1Cl get with A498 renal?
67.3 µM

Subsequent entry: Cc1[nH]c2ccccc2c1C1Cc2ccccc2N1C(=O)/C(Cl)=C/c1ccccc1 (centres undefined)
> 100 µM

Subsequent entry: O=C1NC2OCC(O)C(O)C2O1 (centres undefined)
> 100 µM

Subsequent entry: O=c1oc2cc(O)ccc2c(O)c1C(c1ccccc1F)c1c(O)c2ccc(O)cc2oc1=O
> 100 µM

Subsequent entry: Cc1ccc(NC(=O)c2cccc(OP(=O)(O)Nc3ccc(C)cc3)c2)cc1
> 100 µM

Subsequent entry: O=c1[nH]nc(Cc2ccccc2)[nH]1
> 100 µM

Subsequent entry: COc1cc2c(c(OC)c1OC)-c1c(cc3c(c1OC)OCO3)C1OC2C(C)C1C (centres undefined) (tested in a mixture with another compound)
> 100 µM

Subsequent entry: COC(=O)c1cc(C)c(C)c2c1NC(=O)CNC2=O
> 100 µM

Subsequent entry: C=CCc1cc(-c2cc(CC=C)c(O)c(CNCCCl)c2)cc(CNCCCl)c1O
52.3 µM

Subsequent entry: Cc1ccc2c(c1)C1(C)OC(C=CC1=O)O2 (centres undefined)
13.4 µM

Subsequent entry: COc1cc(/C=C2\N=C(c3ccccc3)N(c3nc4c(OC)ccc(OC)c4s3)C2=O)ccc1O
> 100 µM

Subsequent entry: COc1ccc(OC)c(C(=O)c2oc3ccc(Br)cc3c2N)c1
1.56 µM

Subsequent entry: O=c1[nH]c(Nc2nc3ccccc3[nH]2)nc2c1CCC2
> 100 µM

* * *

Each record here notes measured TGI.
# Test system: BT-549 breast
# ASSAY COMMENT: NCI tumour cell line growth inhibition, 48 h

1) Cc1cc(=O)n2nc(CN3CCCCC3)sc2n1: > 100 µM

Look at this compound and give its reported TGI. Cc1ccc(N=Nc2c(C)c(C#N)c(=S)n(C3OC(CO)C(O)C(O)C3O)c2C)cc1 (stereo not given)
54.4 µM

* * *

Each record here notes measured TGI.
# Tested on: EKVX NSCLC
# ASSAY COMMENT: NCI tumour cell line growth inhibition, 48 h

Past entries and their recorded results:
1. CNc1nc2n(CCO)c(-c3ccccc3)c(-c3ccccc3)nc-2c(=O)n1: > 50 µM
2. CNc1nc(N)c(N=O)c(Nc2ccc(Br)cc2)n1: > 100 µM
3. Cc1ccc(-c2cc(=O)c3cc(C)c(C)c(C(=O)O)c3o2)cc1C: > 100 µM
4. O=C1CCCCC2N(C(c3ccccc3)c3ccccc3)CC[C@@]12c1ccccc1 (mixture of isomers): > 10 µM
5. CC(C)c1ccc(C(c2ccc(OCC(=O)O)cc2)c2ccc(C(C)C)cc(=O)c2O)c(O)c(=O)c1: > 100 µM

Look at this compound and give its reported TGI. NNc1nncc2n[nH]nc12
> 100 µM

Subsequent entry: Cc1nn(C(=O)Cc2ccccc2)c2c1C(c1ccc(N(C)C)cc1)SC(N)=N2 (stereo unspecified)
> 100 µM

Subsequent entry: COC(=O)C(NC(=O)c1ccccc1)c1ccco1 (stereo unspecified)
> 100 µM

Subsequent entry: FC(F)(F)c1nc(-c2ccccc2)oc1Sc1nnc(Sc2oc(-c3ccccc3)nc2C(F)(F)F)s1
> 80.7 µM

Subsequent entry: Fc1ccc(C2SCc3nc4ccccc4n32)cc1Cl (stereo unspecified)
92.8 µM

Subsequent entry: Cc1cc(O)c(C(C)(C)C)cc1Sc1cc(C(C)(C)C)c(O)cc1C
11.6 µM

* * *

# System: HCC-2998 colon
# ASSAY COMMENT: NCI tumour cell line growth inhibition, 48 h; in the data active = GI50 below about 0.43 µM; inactive = the rest
Write down the outcome that applies. Available outcomes: active, inactive

Worked examples follow.
1. CON(C)C(=O)N1N=C(c2cc(F)ccc2F)SC1(CCCN)c1ccccc1 (centres undefined): active
2. Nc1nc(-c2cccc(Cl)c2)c(-c2ccc3ncccc3n2)s1: inactive
3. CC[C@H](C)[C@H]1O[C@]2(C=C[C@@H]1C)C[C@@H]1C[C@@H](C/C=C(\C)[C@@H](O[C@H]3C[C@H](OC)[C@@H](O[C@H]4C[C@H](OC)[C@@H](NC)[C@H](C)O4)[C@H](C)O3)[C@@H](C)/C=C/C=C3\CO[C@@H]4[C@H](O)C(C)=C[C@@H](C(=O)O1)[C@]34O)O2: inactive
4. N.N.O=C([O-])P(=O)([O-])[O-].[Na+].[Pt+4]: inactive
5. COc1ccccc1Cn1cc2c(c1-c1ccccc1)CCc1cnoc1-2: inactive
6. CC(=O)O.[Au].c1ccc([PH+](c2ccccc2)c2ccccc2)cc1: inactive
7. COc1ccc(-n2cc(-c3cc(OC)c(OC)c(OC)c3)[nH]c2=O)cc1Cl: inactive
8. CCN(CC)CCCC(C)Nc1cnc(C(=O)Nc2cccc3ccc(OC)nc23)cn1 (centres undefined): inactive

Turning now to a further record.
What call does the record list for COC(=O)c1c(C)[nH]c(/C=C2\N=C(c3ccc[nH]3)C=C2OC)c1C ?
inactive
